Tested on: HepG2-ACTB-RAB5A
test.summary: phenotypically active (imaging signature differs from DMSO and reproducible) at any of 0.3-9 uM (binary (1 = active, 0 = inactive)); higher = active
test.conditions: treatment time: 24 h
Where a name gives a salt, the structure may show the parent alone.
The reply should name one outcome from active, inactive

compound	class.name
C#CCN(C)[C@H](C)Cc1ccccc1	inactive
C[C@H](N)Cc1ccccc1	inactive
CCOC(=O)C1(c2ccccc2)CCN(C)CC1	inactive

Data request: Answer briefly: the call reported for CCCN1CCC[C@@H]2Cc3n[nH]cc3C[C@H]21 [(-)-Quinpirole hydrochloride] in this assay.
Data returned: inactive

Data request: Answer briefly: the call reported for Cc1sc2c(c1C)C(c1ccc(Cl)cc1)=N[C@H](CC(=O)OC(C)(C)C)c1nnc(C)n1-2 in this assay.
Data returned: active

Data request: Answer briefly: the call reported for COC[C@H]1OC(=O)c2coc3c2[C@@]1(C)C1=C(C3=O)[C@@H]2CCC(=O)[C@@]2(C)C[C@H]1OC(C)=O in this assay.
Data returned: inactive

Data request: Answer briefly: the call reported for CC(C)NCC(O)c1ccc(N)c(C#N)c1 (stereo not given) in this assay.
Data returned: inactive

Data request: Answer briefly: the call reported for CN1C2CCC1CC(O)C2 (stereo not given) in this assay.
Data returned: inactive

Data request: Answer briefly: the call reported for COc1ccc2c3c1O[C@H]1C(=O)CC[C@@]4(O)[C@@H](C2)N(C)CC[C@]314 in this assay.
Data returned: inactive

Data request: Answer briefly: the call reported for O=C(O)CC[N+](=O)[O-] in this assay.
Data returned: inactive

====

System: HepG2-GM130-SQSTM1
test.summary: phenotypically active (imaging signature differs from DMSO and reproducible) at any of 0.3-9 uM (binary (1 = active, 0 = inactive)); higher = active
test.conditions: treatment time: 24 h
The reply should name one outcome from active, inactive

compound	class.name
CCN(CC)CCN1C(=O)CN=C(c2ccccc2F)c2cc(Cl)ccc21	inactive
C[C@@]1(CO)[C@H](O)CC[C@@]2(C)[C@H]1CC[C@H]1C[C@@H]3C[C@@]12CC[C@]3(O)CO	active
N#CC(C#N)=NNc1ccc(OC(F)(F)F)cc1	active
C[C@]12C/C(=C\O)C(=O)C[C@@H]1CC[C@@H]1[C@@H]2CC[C@@]2(C)[C@H]1CC[C@]2(C)O	inactive

Data request: Answer briefly: the call reported for O=C(Nc1ccncc1)C(=O)c1cn(Cc2ccc(Cl)cc2)c2ccccc12 in this assay.
Data returned: active

Data request: Answer briefly: the call reported for COC[C@H]1OC(=O)c2coc3c2[C@@]1(C)C1=C(C3=O)[C@@H]2CCC(=O)[C@@]2(C)C[C@H]1OC(C)=O in this assay.
Data returned: inactive

Data request: Answer briefly: the call reported for C=CCC1(C(C)C#CCC)C(=O)NC(=O)N(C)C1=O (stereo not drawn) in this assay.
Data returned: inactive

Data request: Answer briefly: the call reported for COc1ccc(OC)c(C(O)C(C)N)c1 (stereo not drawn) in this assay.
Data returned: inactive

====

Tested on: HepG2-TUBA1B-RELA
test.summary: lowest phenotypically active concentration; higher = less potent
test.conditions: treatment time: 24 h
property.name: lowest phenotypically active concentration

Worked cases, lowest phenotypically active concentration given:
compound	recorded.measurement
C[C@@H]1C[C@@H]([C@H](O)CC2CC(=O)NC(=O)C2)C(=O)[C@@H](C)C1 [Cycloheximide]	≤ 0.3 µM
CCCCCC[C@H]1C(=O)O[C@H](C)[C@H](NC(=O)c2cccc(NC=O)c2O)C(=O)O[C@@H](C)[C@@H]1OC(=O)CC(C)C [antimycin a]	≤ 0.3 µM
C[C@@H]1O[C@@H](O[C@H]2C[C@@H](O)[C@]3(CO)[C@H]4[C@H](O)C[C@]5(C)[C@@H](C6=CC(=O)OC6)CC[C@]5(O)[C@@H]4CC[C@]3(O)C2)[C@H](O)[C@H](O)[C@H]1O [Strophantine octahydrate]	≤ 0.3 µM

Fill in lowest phenotypically active concentration for each of the 5 compounds listed.
1. CN1C[C@H](C(=O)N[C@]2(C)O[C@@]3(O)[C@@H]4CCCN4C(=O)[C@H](Cc4ccccc4)N3C2=O)C=C2c3cccc4[nH]cc(c34)C[C@H]21
2. C[C@]12CC[C@H](O)C[C@H]1CC[C@@H]1[C@@H]2C[C@@H](O)[C@]2(C)[C@@H](C3=CC(=O)OC3)CC[C@]12O
3. CC(C)(C)c1cc(C=C(C#N)C#N)cc(C(C)(C)C)c1O
4. CCN1CCN(C(=O)Cc2ccc(Nc3ncc(F)c(Nc4ccc(C(=O)Nc5ccccc5Cl)cc4)n3)cc2)CC1
5. C=C(C)[C@H]1Cc2c(ccc3c2O[C@@H]2COc4cc(OC)c(OC)cc4[C@@H]2C3=O)O1

Data returned:
9 µM
1 µM
1 µM
≤ 0.3 µM
≤ 0.3 µM

====

Test system: HepG2-TP53BP1-CLTA
test.summary: phenotypically active (imaging signature differs from DMSO and reproducible) at any of 0.3-9 uM (binary (1 = active, 0 = inactive)); higher = active
test.conditions: treatment time: 24 h
property.name: phenotypically active
Give bare numbers.

Fill in phenotypically active for each of the 2 molecules listed.
1. COc1cc2c(cc1OC)[C@@]13CCN4CC5=CCO[C@H]6CC(=O)N2[C@H]1[C@H]6[C@H]5C[C@H]43
2. C/C=C(/C)C(=O)O[C@H]1C(C)=C2[C@H]([C@@H]1OC(=O)CCCCCCC)[C@@](C)(OC(C)=O)C[C@H](OC(=O)CCC)[C@@]1(O)[C@H]2OC(=O)[C@@]1(C)O

Data returned:
1: 0; 2: 1

Fill in phenotypically active for each of the 2 molecules listed.
1. N#CC(C#N)=Cc1ccc(O)c(O)c1
2. CCN1CCN(C(=O)Cc2ccc(Nc3ncc(F)c(Nc4ccc(C(=O)Nc5ccccc5Cl)cc4)n3)cc2)CC1

Data returned:
[0, 1]

====

Tested on: A549-CANX-COX4
test.summary: phenotypically active (imaging signature differs from DMSO and reproducible) at any of 0.3-9 uM (binary (1 = active, 0 = inactive)); higher = active
test.conditions: treatment time: 24 h
Structures can show the parent of a compound that is named as a salt.
Would you kindly list phenotypically active for each of these compounds?
Answers are plain numbers.

Worked cases, phenotypically active given:
compound	phenotypically active
CCN1C[C@]2(COC)CC[C@H](O)[C@@]34[C@@H]5C[C@H]6[C@H](OC(C)=O)[C@@H]5[C@](O)(C[C@@H]6OC)[C@H](C[C@H]23)[C@H]14	0
CCOC(=O)C1(c2ccccc2)CCN(C)CC1	0
CCN(C)C(=O)Oc1cccc([C@H](C)N(C)C)c1	0
CC(C)c1cccc(C(C)C)c1O	0
COc1ccc(CCN2CCC(Nc3nc4ccccc4n3Cc3ccc(F)cc3)CC2)cc1	1

Fill in phenotypically active for each of the 4 compounds listed.
1. CN1CCC2=C[C@H](O)[C@H]3OC(=O)c4cc5c(cc4[C@H]3[C@@H]21)OCO5 [Hippeastrine hydrobromide]
2. O=C1CCCN1CC#CCN1CCCC1 [Oxotremorine sesquifumarate]
3. CC[N+](CC)(CCCNC1=CC(=O)C(NCCC[N+](CC)(CC)Cc2ccccc2)=CC1=O)Cc1ccccc1 [Benzoquinonium dibromide]
4. COC(=O)[C@@]1(O)C[C@H]2O[C@]1(C)n1c3ccccc3c3c4c(c5c6ccccc6n2c5c31)C(=O)NC4

Data returned:
1: 0; 2: 0; 3: 0; 4: 1

Fill in phenotypically active for each of the 5 compounds listed.
1. C=C(C)[C@H]1CN[C@H](C(=O)O)[C@H]1CC(=O)O
2. COc1ccc2c(c1O)-c1c(OC)c(OC)cc3c1[C@H](C2)N(C)CC3 [Isocorydine (+)]
3. C[C@]12COC(=O)C[C@@H]1CC[C@@H]1[C@@H]2CC[C@@]2(C)[C@H]1CC[C@]2(C)O
4. CC1=C(O)C(=O)[C@@H]2O[C@@H]2C1=O [(-)-Terreic acid]
5. CC[C@H]1CN2CCc3cc(OC)c(OC)cc3[C@@H]2C[C@@H]1C[C@H]1NCCc2cc(OC)c(OC)cc21

Data returned:
1: 0; 2: 0; 3: 0; 4: 0; 5: 1

====

System: A549-TP53BP1-CLTA
test.summary: lowest phenotypically active concentration; higher = less potent
test.conditions: treatment time: 24 h
Would you kindly list lowest phenotypically active concentration for each of these compounds?

compound	recorded.measurement
COc1ccc(C[C@H]2NC[C@H](O)[C@H]2OC(C)=O)cc1 [Anisomycin]	≤ 0.3 µM
C[C@@]12C(=O)OC(=O)[C@]1(C)[C@H]1CC[C@@H]2O1 [Cantharidin]	3 µM
Cc1sc2c(c1C)C(c1ccc(Cl)cc1)=N[C@@H](CC(=O)OC(C)(C)C)c1nnc(C)n1-2	≤ 0.3 µM
COC[C@H]1OC(=O)c2coc3c2[C@@]1(C)C1=C(C3=O)[C@@H]2CCC(=O)[C@@]2(C)C[C@H]1OC(C)=O [wortmannin]	9 µM
COc1cc2c(c(OC)c1OC)-c1ccc(OC)c(=O)cc1[C@@H](NC(C)=O)CC2 [colchicine]	≤ 0.3 µM
N#CC(C#N)=NNc1cccc(Cl)c1	9 µM
C[C@@H]1C[C@@H]([C@H](O)CC2CC(=O)NC(=O)C2)C(=O)[C@@H](C)C1 [Cycloheximide]	≤ 0.3 µM

# input for lookup
Data request: Using the record for C=C1[C@@H](O)C2C=CC[C@H](C)C(=O)[C@](C)(O)C=C[C@@H](OC(C)=O)[C@]23C(=O)N[C@H](Cc2ccccc2)[C@@H]3[C@@H]1C (stereo partly drawn) [Cytochalasin D] , report its lowest phenotypically active concentration.
Data returned: ≤ 0.3 µM
